Target: Ras farnesyl transferase (Homo sapiens, UniProt P49354+P49356)
Construct: made in house
Assay: Ras farnesyl transferase enzyme inhibition, K-Ras substrate (H-Ras fused with polybasic lysine domain of K-Ras)
Assay type: biochemical
Settings: K-Ras substrate (fused protein of H-Ras with polybasic lysine domain of K-Ras); recombinant farnesyl transferase
Protocol: In the present experiment, the improved Pompliano's method (see: Pompliano et al., Biochemistry, 31, 3800, 1992) was applied. […] The enzyme reaction was performed in 50 μl of 50 mM Sodium HEPES buffer solution containing 25 mM of potassium chloride, 25 mM of magnesium chloride, 10 mM of DTT and 50 μM of zinc chloride. […] Enzyme titer was measured in the unsaturated state of substrate where the concentration of Ras substrate protein and farnesyl transferase have quantitative relationship. […]
MEASUREMENT_TYPE: IC50

Please review the entries below; each comes with its answer.
COCCN(C)C(=O)c1cn(Cc2cncn2CCCSc2ccccc2)cc1-c1cccc2ccccc12 [Example 5]; < 10 nM
O=[N+]([O-])c1cn(Cc2cncn2CCc2ccccc2)cc1-c1cccc2ccccc12 [Example 39]; < 8.3 nM
Cn1cncc1Cn1cc(-c2cccc3ccccc23)c([N+](=O)[O-])c1 [Example 48]; > 30 nM
Cc1ncn(Cc2ccc3ccccc3c2)c1Cn1cc(C(=O)N2CCN(C)CC2)c(-c2cc(Cl)cc3ccccc23)c1 [Example 54]; < 30 nM

Param item = Cc1ncn(CCCOCc2ccccc2Cl)c1Cn1cc(C(=O)N2CCN(C)CC2)c(-c2cccc3ccccc23)c1 [Example 31] ; retrieve measured IC50. < 2.1 nM

Which value of IC50 has been reported for CN1CCN(C(=O)c2cn(Cc3cncn3Cc3ccco3)cc2-c2cccc3ccccc23)CC1 [Example 12] in the records? < 100 nM

====

Entries annotated with measured IC50
Biological target: Ras farnesyl transferase (Rattus norvegicus, UniProt Q02293+Q04631)
Construct: endogenous in cells; host or cells: Rat2 fibroblasts transformed with C-Harvey-Ras or with the H-Ras/K-Ras polybasic-domain fusion
Assay: In vivo (intracellular) Ras farnesylation inhibition in Rat2 cell line expressing C-Harvey-Ras
Type: cell-based
Details: Rat2 cells expressing C-Harvey-Ras; concentration inhibiting 50% of farnesyl binding; read-out: H-Ras CIC50
Method: In the present experiment, Rat2 cell line which expresses C-Harvey-Ras protein having transforming activity and Rat2 cell line(Korean patent application No. 97-14409) which is transformed with fused protein of H-Ras substituted with polybasic lysine domain at C-terminus of K-Ras were used. The experiment was performed by the modified Declue's method(Declue. J. E. et al., Cancer Research, 51, 712, 1991) as follows. […]

Cc1ncc(Cn2cc(C(=O)N3CCN(C)CC3)c(-c3cccc4ccccc34)c2)n1Cc1ccc2c(c1)OCO2 [Example 15]; > 25 nM

Could you now look at the following compound, please?
What IC50 value was documented for this compound, O=[N+]([O-])c1cn(Cc2cncn2CCc2cccc3ccccc23)cc1-c1cccc2ccccc12 [Example 46] ? > 50 nM

====

biological target: Ras farnesyl transferase (Homo sapiens, UniProt P49354+P49356); construct: made in house; assay: Ras farnesyl transferase enzyme inhibition, K-Ras substrate (H-Ras fused with polybasic lysine domain of K-Ras); type: biochemical; details: K-Ras substrate (fused protein of H-Ras with polybasic lysine domain of K-Ras); recombinant farnesyl transferase
pIC50: −log10 of the molar value.
MEASUREMENT_TYPE: pIC50

Consider the compound shown here: `O=[N+]([O-])c1cn(Cc2cncn2Cc2ccc3ccccc3c2)cc1-c1cccc2ccccc12` What is its recorded pIC50? < 7.52

# query: pIC50 of entry `COc1ccccc1CCn1c(Cn2cc(C(=O)N3CCN(C)CC3)c(-c3cccc4ccccc34)c2)cnc1C` > 8.19

Name the reported pIC50 value associated with the compound `CCOCCCn1c(Cn2cc(C(=O)N3CCN(C)CC3)c(-c3cccc4ccccc34)c2)cnc1C` < 7.70

====

molecular target: Ras farnesyl transferase (Homo sapiens, UniProt P49354+P49356); construct: made in house; assay: Ras farnesyl transferase enzyme inhibition, H-Ras substrate; type: biochemical; conditions: H-Ras substrate protein; recombinant farnesyl transferase; 30 minutes at 37° C.
MEASUREMENT_TYPE: IC50

Use the examples below as a reference point.
Cc1ncc(Cn2cc(C(=O)N3CCN(C)CC3)c(-c3cccc4ccccc34)c2)n1Cc1ccc2c(c1)OCO2 [Example 15]; < 6 nM
O=[N+]([O-])c1cn(Cc2cncn2CCc2ccccc2)cc1-c1cccc2ccccc12 [Example 39]; < 6 nM
CON1CCN(C(=O)c2cn(Cc3c(C)ncn3Cc3ccc4c(c3)OCO4)cc2-c2cccc3ccccc23)CC1 [Example 23]; < 22 nM
COc1ccccc1CCn1c(Cn2cc(C(=O)N3CCN(C)CC3)c(-c3cccc4ccccc34)c2)cnc1C [Example 26]; < 2 nM

Next, consider the following molecule.
Could you tell me which IC50 is on file for Cc1ccc(CCn2cncc2Cn2cc(-c3cccc4ccccc34)c([N+](=O)[O-])c2)cc1 [Example 40] ? < 24 nM

====

target: Ras farnesyl transferase (Homo sapiens, UniProt P49354+P49356); construct: made in house; experiment: Ras farnesyl transferase enzyme inhibition, K-Ras substrate (H-Ras fused with polybasic lysine domain of K-Ras); assay type: biochemical; settings: K-Ras substrate (fused protein of H-Ras with polybasic lysine domain of K-Ras); recombinant farnesyl transferase
Reported IC50 values for a set of compounds

Return reported IC50; argument: O=[N+]([O-])c1cn(Cc2cncn2Cc2ccc(Cl)cc2)cc1-c1cccc2ccccc12 [Example 37] < 9.5 nM

For the compound Cc1ncn(CCCOCc2ccccc2)c1Cn1cc(C(=O)N2CCN(C)CC2)c(-c2cccc3ccccc23)c1 [Example 29] , what IC50 is on record? < 2.7 nM

Could you share which IC50 value was measured for CCOCCCn1cnc(C)c1Cn1cc(C(=O)N2CCN(C)CC2)c(-c2cccc3ccccc23)c1 [Example 28] ? < 3.2 nM

Consider the compound shown here: O=C(c1cn(Cc2cncn2C2CCN(Cc3ccccc3)CC2)cc1-c1cccc2ccccc12)N1CCOCC1 [Example 14] What is its recorded IC50? < 10 nM

Sample Cc1ncc(Cn2cc(C(=O)N3CCN(C)CC3)c(-c3cccc4ccccc34)c2)n1CCCOCc1ccccc1 [Example 33] — what was its IC50? > 30 nM

Please give the measured IC50 for this compound: Cc1ncn(Cc2ccc3ccccc3c2)c1Cn1cc(C(=O)N2CCN(C)CC2)c(-c2cc(Br)cc3ccccc23)c1 [Example 53] < 30 nM

====

Consider the following compounds and their measured pIC50 readings.
target: Ras farnesyl transferase (Rattus norvegicus, UniProt Q02293+Q04631); construct: endogenous in cells; host or cells: Rat2 fibroblasts transformed with C-Harvey-Ras or with the H-Ras/K-Ras polybasic-domain fusion; assay: In vivo (intracellular) Ras farnesylation inhibition in Rat2 cell line expressing C-Harvey-Ras; format: cell-based; conditions: Rat2 cells expressing C-Harvey-Ras; concentration inhibiting 50% of farnesyl binding; read-out: H-Ras CIC50
pIC50: −log10 of the molar value.

The cases that follow already have their pIC50 on record.
Cc1ncn(Cc2ccc3c(c2)OCO3)c1Cn1cc(C(=O)N2CCN(C)CC2)c(-c2cccc3ccccc23)c1 [Example 16]; < 7.60
O=C(c1cn(Cc2cncn2C2CCN(Cc3ccccc3)CC2)cc1-c1cccc2ccccc12)N1CCOCC1 [Example 14]; > 7.60
COCCN(C)C(=O)c1cn(Cc2c(C)ncn2CCCOCc2ccccc2)cc1-c1cccc2ccccc12 [Example 30]; > 7.90
CN1CCN(C(=O)c2cn(Cc3cncn3CCCOc3ccccc3)cc2-c2cccc3ccccc23)CC1 [Example 7]; > 7.60
O=C(c1cn(Cc2cncn2CCCOc2ccccc2)cc1-c1cccc2ccccc12)N1CCOCC1 [Example 6]; > 7.60
Cc1ncc(Cn2cc(C(=O)N3CCN(C)CC3)c(-c3cccc4ccccc34)c2)n1CCCOCc1ccccc1 [Example 33]; < 7.52
Cc1ncn(Cc2ccc3ccccc3c2)c1Cn1cc(C(=O)N2CCN(C)CC2)c(-c2cc(Br)cc3ccccc23)c1 [Example 53]; > 8.00
CSc1c(C(=O)N2CCN(C)CC2)c(-c2cccc3ccccc23)cn1Cc1cncn1Cc1ccc2c(c1)OCO2 [Example 19]; > 7.90
Cc1ncn(Cc2ccc3ccccc3c2)c1Cn1cc(C(=O)N2CCN(C)CC2)c(-c2cc(Cl)cc3ccccc23)c1 [Example 54]; > 8.00
O=[N+]([O-])c1cn(Cc2cncn2CCc2ccccc2)cc1-c1cccc2ccccc12 [Example 39]; > 7.60

// lookup pIC50 | system=Ras farnesyl transferase (Rattus norvegicus, UniProt Q02293+Q04631) | key= Nc1cn(Cc2cncn2Cc2ccc(Cl)cc2)cc1-c1cccc2ccccc12 [Example 50] < 7.30

Record O=[N+]([O-])c1cn(Cc2cncn2CCc2ccc(Cl)cc2)cc1-c1cccc2ccccc12 [Example 41] : what is its pIC50 with Ras farnesyl transferase (Rattus norvegicus, UniProt Q02293+Q04631)? < 7.30

Given the entry Cc1ncn(Cc2ccc3ccccc3c2)c1Cn1cc(C(=O)N2CCN(C)CC2)c(-c2cccc3ccccc23)c1 [Example 55] , what pIC50 was observed with Ras farnesyl transferase (Rattus norvegicus, UniProt Q02293+Q04631)? > 8.00

These entries and their values trace back to patent US6511978B1.
